# TGT: Sodium-dependent serotonin transporter (Homo sapiens)
# ASSAY METHOD TEXT: In vitro competitive binding versus [3H]citalopram in murine kidney cells transfected with cDNA for human serotonin transporter (SERT)
# Assay type: cell-based
READOUT NAME: Ki (nM)
Respond numerically; units are nM and should not be typed.

{"COMPOUND": "COC(=O)[C@@H]1C2CC[C@H](C[C@@H]1c1ccc(I)cc1)N2C", "Ki [nM]": 0.67}

Record COC(=O)[C@@H]1C2CCC(C[C@@H]1c1ccc(/C=C\I)cc1)N2 (some centres not stated) . Reported Ki: 0.05

---

The reader will find reported IC50 values listed item by item below.
# TGT: Sodium-dependent serotonin transporter (Homo sapiens, UniProt P31645)
# Sequence (P31645 whole entry): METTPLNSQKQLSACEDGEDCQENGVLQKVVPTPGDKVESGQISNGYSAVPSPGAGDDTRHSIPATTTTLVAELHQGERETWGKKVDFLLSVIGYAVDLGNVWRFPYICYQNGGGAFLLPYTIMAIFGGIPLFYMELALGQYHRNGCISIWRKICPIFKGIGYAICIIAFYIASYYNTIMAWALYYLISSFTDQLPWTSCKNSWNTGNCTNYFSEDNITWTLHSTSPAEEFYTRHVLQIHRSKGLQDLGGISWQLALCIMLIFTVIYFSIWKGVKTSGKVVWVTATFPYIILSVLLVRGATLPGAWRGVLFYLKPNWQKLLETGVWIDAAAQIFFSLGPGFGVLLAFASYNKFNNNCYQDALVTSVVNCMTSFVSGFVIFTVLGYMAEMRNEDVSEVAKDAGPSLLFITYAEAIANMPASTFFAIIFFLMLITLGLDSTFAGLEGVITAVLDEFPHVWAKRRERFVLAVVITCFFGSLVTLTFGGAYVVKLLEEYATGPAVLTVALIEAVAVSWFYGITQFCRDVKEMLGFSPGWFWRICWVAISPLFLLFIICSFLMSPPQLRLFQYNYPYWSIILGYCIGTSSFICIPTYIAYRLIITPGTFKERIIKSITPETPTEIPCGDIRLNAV
# ASSAY METHOD TEXT: Binding affinity towards serotonin transporter (SERT) by using [3H]paroxetine as radioligand
Respond numerically; units are nM and should not be typed.

Example results:
{"MOLECULE": "C/C=C/c1ccc([C@H]2CC3CCC([C@H]2C(=O)OC)N3C)cc1 (some centres undefined)", "IC50 [nM]": 1.3}
{"MOLECULE": "C/C=C\\c1ccc([C@H]2CC3CCC([C@H]2C(=O)OC)N3C)cc1 (some centres undefined)", "IC50 [nM]": 1.15}
{"MOLECULE": "C=C(C)c1ccc([C@H]2CC3CCC(N3)[C@H]2C(=O)CC)cc1 (some centres undefined)", "IC50 [nM]": 0.16}

Record C=Cc1ccc([C@H]2CC3CCC(N3)[C@H]2C(=O)CC)cc1 (some centres undefined) . Reported IC50: 0.32
